ASSAY_REMARKS: Cytotoxicity (SRB) against non-tumoral HMLE cells
Assay type: cell-based, human
TEST_CONTEXT: human, HMLE cells (non-tumoral human mammary epithelial cells); increasing concentrations up to 100 μM; mean ± SD of at least three independent experiments; read-out: Normal Human Cell Lines, CC50, HMLE
Experimental: All compounds were also evaluated for their cytotoxic activity against two non-tumoral human cell lines named human mammary epithelial cell (HMLE) and L02 (a human liver cell line) in Table 2 and SI values between the CC50 in non-tumoral cell lines and IC50 in tumoral cells calculated. […] Cells were seeded into 96-well plates (4000 cells/well) and incubated at 37 °C in a humidified 5% CO2 atmosphere. […] Cell viability was evaluated using the sulforhodamine B (SRB) assay as previous described. […]
OBSERVATION_TYPE: CC50 at 48 h

Reference set, count: 4
COc1cccc(OC)c1/C=C/C(=O)c1ccccc1F : > 100 µM
COc1ccc(C(=O)/C=C/c2c(OC)cccc2OC)c(OCc2ccccc2)c1 : > 100 µM
COc1cccc(OC)c1/C=C/C(=O)c1cccc(C(F)(F)F)c1 : > 100 µM
COc1cccc(OC)c1/C=C/C(=O)c1cccc([N+](=O)[O-])c1 : > 100 µM

Consider the following items and state reported CC50 at 48 h for each.
1. COc1cccc(OC)c1/C=C/C(=O)c1ccc([N+](=O)[O-])cc1
2. COc1cccc(OC)c1/C=C/C(=O)c1ccc(OCc2ccccc2)cc1
3. COc1cc(C(=O)/C=C/c2c(OC)cccc2OC)ccc1OCc1ccccc1
4. CCOc1cccc(C(=O)/C=C/c2c(OC)cccc2OC)c1
5. COc1ccc(C(=O)/C=C/c2c(OC)cccc2OC)c(O)c1
6. COc1cccc(OC)c1/C=C/C(=O)c1ccc(O)cc1O

1. > 100 µM
2. > 100 µM
3. > 100 µM
4. 9.58 µM
5. 16.2 µM
6. > 100 µM

Consider the following items and state reported CC50 at 48 h for each.
1. CCOc1cc(OC)ccc1C(=O)/C=C/c1c(OC)cccc1OC
2. COc1cccc(OC)c1/C=C/C(=O)c1cc(C(F)(F)F)cc(C(F)(F)F)c1
3. COc1cccc(OC)c1/C=C/C(=O)c1cccc(Br)c1

1: 9.03 µM; 2: > 100 µM; 3: 13.1 µM
